Data origin, for the record: patent US12350270B2

# Test system: parasites (ring stage, in human red blood cell culture)
# assay notes: Parasite LDH growth assay (antiparasite potency, Parasite Assay)
# Format: cell-based, Plasmodium falciparum
# condition context: Plasmodium falciparum, Erythrocyte, 72 h, 0.7% rings, 2% haematocrit, 72 hours at 37° C., LDH readout of parasite growth
// reported EC50 per item

compound smiles	tgt	observed
CCC1(CC)CC(=O)N([C@H]2c3cc(C(=O)N[C@@H]4c5ccccc5C[C@H]4O)ccc3CC[C@@H]2OC)C(=N)N1	parasites (ring stage, in human red blood cell culture)	3.4 nM
CCC1(CC)CC(=O)N([C@H]2c3cc(C(=O)N[C@@H]4c5ccccc5OC(C)(C)[C@H]4O)ccc3OC[C@]2(C)OC)C(=N)N1	parasites (ring stage, in human red blood cell culture)	0.3 nM
CC1(C)CC(=O)N([C@@H]2CC(C)(C)c3ccc(C(=O)N[C@@H]4c5ccccc5OC[C@@]4(C)O)cc32)C(=N)N1	parasites (ring stage, in human red blood cell culture)	57.5 nM
CCC1(CC)CC(=O)N([C@H]2c3cc(C(=O)N[C@@H]4c5ccccc5C[C@H]4O)ccc3OC[C@H]2COC)C(=N)N1	parasites (ring stage, in human red blood cell culture)	4.2 nM

Measured EC50, CC[C@]1(C)CC(=O)N([C@@H]2C[C@@H](C)c3ccc(C(=O)N[C@@H]4c5ccccc5C[C@H]4O)cc32)C(=N)N1 : 3.4 nM

---

# Tested on: parasites (ring stage, in human red blood cell culture)
# assay notes: Parasite LDH growth assay (antiparasite potency, Parasite Assay)
# Format: cell-based, Plasmodium falciparum
# condition context: Plasmodium falciparum, Erythrocyte, 72 h, 0.7% rings, 2% haematocrit, 72 hours at 37° C., LDH readout of parasite growth
quantity kind: EC50 (nM)
Respond numerically; units are nM and should not be typed.

compound	unit symbol	EC50
CCC1(CC)CC(=O)N([C@@H]2C[C@@H](COC)Oc3ccc(C(=O)N[C@@H]4c5ccccc5OC[C@@]4(C)O)cc32)C(=N)N1	nM	2.6
CCC1(CC)CC(=O)N(C2CC(C)Oc3ccc(C(=O)N[C@@H]4c5ccccc5OC[C@@]4(C)O)cc32)C(=N)N1 (stereo partly shown)	nM	7.9
CC[C@]1(C)CC(=O)N([C@H]2C[C@H](C)c3ccc(C(=O)N[C@@H]4c5ccccc5OC(C)(C)[C@H]4O)cc32)C(=N)N1	nM	184
CC[C@]1(C)CC(=O)N([C@@H]2c3cc(C(=O)N[C@@H]4c5ccccc5OC(C)(C)[C@H]4O)ccc3C[C@@H]2C)C(=N)N1	nM	154

The compound COCC1(C)Oc2ccc(C(=O)N[C@@H]3c4ccccc4C[C@]3(C)O)cc2C1N1C(=N)NC(C)(C)CC1=O (stereo partly shown) showed EC50 equal to 71.4

Per the records, this compound ( CC1(C)CC(=O)N([C@@H]2CC(C)(C)c3ccc(C(=O)N[C@@H]4c5ccccc5OC(C)(C)[C@H]4O)cc32)C(=N)N1 ) has EC50 equal to 8.3

// EC50 lookup, compound = C[C@H]1C[C@H](N2C(=N)NC(C)(C)CC2=O)c2cc(C(=O)N[C@@H]3c4ccccc4OC(C)(C)[C@H]3O)ccc21 , result: 180

---

Reported EC50 values for the following compounds.
# System: parasites (ring stage, in human red blood cell culture)
# assay notes: Parasite LDH growth assay (antiparasite potency, Parasite Assay)
# Type: cell-based, Plasmodium falciparum
# condition context: Plasmodium falciparum, Erythrocyte, 72 h, 0.7% rings, 2% haematocrit, 72 hours at 37° C., LDH readout of parasite growth
Write down the numeric answer in nM and omit the unit.

compound	EC50, nM
CC[C@]1(C)CC(=O)N([C@H]2c3cc(C(=O)N[C@@H]4c5ccccc5C(F)(F)[C@H]4O)ccc3OC[C@@H]2OC)C(=N)N1 [Example 232]	21.8

EC50 measured on CC[C@]1(C)CC(=O)N([C@@H]2CCc3ccc(C(=O)N[C@@H]4c5ccccc5OC(C)(C)[C@H]4O)cc32)C(=N)N1 [Example 121] = 0.6

Field EC50 (entry COC1COc2ccc(C(=O)N[C@@H]3c4ccccc4C[C@]3(C)O)cc2C1N1C(=N)NC(C)(C)CC1=O (stereo partly shown) [Example 142] ) reads 98.5

Consider CCC1(CC)CC(=O)N([C@H]2c3cc(C(=O)N[C@@H]4c5ccccc5C[C@H]4O)ccc3O[C@]2(C)COC)C(=N)N1 [Example 75B] . Its measured EC50 is 9.5

Recorded EC50 (compound CC[C@]1(C)CC(=O)N([C@@H]2C[C@@H](C)c3ccc(C(=O)N[C@@H]4c5ccccc5OC[C@@]4(C)O)cc32)C(=N)N1 [Example 131] ): 2

Recorded EC50 (compound CCC1(CC)CC(=O)N([C@@H]2CCOc3ccc(C(=O)N[C@@H]4c5cc(Cl)ccc5OC[C@H]4O)cc32)C(=N)N1 [Example 231] ): 7.4

The reported EC50 of the compound CCC1(CC)CC(=O)N(C2CCOc3ccc(C(=O)N[C@H]4CC(C)(C)Oc5ccccc54)cc32)C(=N)N1 (stereo partly shown) [Example 1A] was 0.5
